- SYSTEM: T1, recombinant human IL-6 (human, UniProt P05231 30-212)
- T1 construct: Bought protein
- T1 sequence (P05231 30-212 limits assumed): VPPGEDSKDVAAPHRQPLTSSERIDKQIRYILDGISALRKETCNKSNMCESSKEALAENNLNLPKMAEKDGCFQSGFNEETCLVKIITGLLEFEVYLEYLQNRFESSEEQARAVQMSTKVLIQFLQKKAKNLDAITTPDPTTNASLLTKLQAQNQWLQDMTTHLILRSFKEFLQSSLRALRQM
- MEASUREMENT DESCRIPTION: SPR Biacore, supernatant Ab on Protein A chip, IL-6 analyte, 25 C
koff values, listed per item

- BINDER: "anti-IL-6 antibody, light chain V29L (heavy chain WT) (antibody, V domains shown, See note of m2; also called WT / V29L) VH: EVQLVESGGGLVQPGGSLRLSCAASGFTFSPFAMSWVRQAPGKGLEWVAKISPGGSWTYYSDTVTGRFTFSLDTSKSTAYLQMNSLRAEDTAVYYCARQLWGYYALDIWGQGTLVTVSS VL: DIQLTQSPSSLSASVGDRVTITCSASISLSYMYWYQQKPGKAPKLLIYDMSNLASGVPSRFSGSGSGTDFTLTISSLQPEDFATYYCMQWSGYPYTFGQGTKVEIK"
  koff: "0.000171 s⁻¹"
- BINDER: "anti-IL-6 antibody, light chain S55W (heavy chain WT) (antibody, V domains shown, See note of m2; also called WT / S55W) VH: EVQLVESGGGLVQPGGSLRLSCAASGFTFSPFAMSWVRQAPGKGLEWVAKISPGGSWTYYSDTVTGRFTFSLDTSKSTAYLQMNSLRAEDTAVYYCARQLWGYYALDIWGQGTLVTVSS VL: DIQLTQSPSSLSASVGDRVTITCSASISVSYMYWYQQKPGKAPKLLIYDMSNLAWGVPSRFSGSGSGTDFTLTISSLQPEDFATYYCMQWSGYPYTFGQGTKVEIK"
  koff: "0.000226 s⁻¹"
- BINDER: "anti-IL-6 antibody, light chain M32L (heavy chain WT) (antibody, V domains shown, See note of m2; also called WT / M32L) VH: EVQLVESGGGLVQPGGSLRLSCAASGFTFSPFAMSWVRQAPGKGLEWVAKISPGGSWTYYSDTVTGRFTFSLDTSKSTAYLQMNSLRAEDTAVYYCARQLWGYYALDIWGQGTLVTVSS VL: DIQLTQSPSSLSASVGDRVTITCSASISVSYLYWYQQKPGKAPKLLIYDMSNLASGVPSRFSGSGSGTDFTLTISSLQPEDFATYYCMQWSGYPYTFGQGTKVEIK"
  koff: "0.000118 s⁻¹"
- BINDER: "anti-IL-6 antibody, heavy chain variant I (M34I, G66D, I108V) / light chain variant III (M32L, M50D, N52S, M88Q) (antibody, human IgG1, V domains shown, also called M34I, G66D, I108V/ M32L, M50D, N52S, M88Q; I/III) VH: EVQLVESGGGLVQPGGSLRLSCAASGFTFSPFAISWVRQAPGKGLEWVAKISPGGSWTYYSDTVTDRFTFSLDTSKSTAYLQMNSLRAEDTAVYYCARQLWGYYALDVWGQGTLVTVSS VL: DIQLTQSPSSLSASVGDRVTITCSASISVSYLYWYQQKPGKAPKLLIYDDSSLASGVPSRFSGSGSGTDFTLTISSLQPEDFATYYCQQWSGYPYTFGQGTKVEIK"
  koff: "0.0002 s⁻¹"
- BINDER: "anti-IL-6 antibody, light chain Q89A (heavy chain WT) (antibody, V domains shown, See note of m2; also called WT / Q89A) VH: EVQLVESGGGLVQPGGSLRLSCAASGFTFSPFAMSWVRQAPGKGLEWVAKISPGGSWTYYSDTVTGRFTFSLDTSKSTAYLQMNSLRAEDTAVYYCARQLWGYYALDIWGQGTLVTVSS VL: DIQLTQSPSSLSASVGDRVTITCSASISVSYMYWYQQKPGKAPKLLIYDMSNLASGVPSRFSGSGSGTDFTLTISSLQPEDFATYYCMAWSGYPYTFGQGTKVEIK"
  koff: "0.000227 s⁻¹"

Cited source for all entries: patent US20240209076A1
